meta.source: paper PMC4657098

Tgt: α3β3γ2 GABAA/BzR (Homo sapiens, UniProt P18507+P34903)
Protocol Notes: Competition binding to HEK cell membranes, α3β3γ2
Set-up: expressed in transfected cells
Cond: read-out: Ki α3
pKi: −log10 of the molar value.
// label = condition met if pKi is not less than 7, otherwise condition not met

Previously resolved entries follow.
> print(dat)
                                   molecule   answer.label
1  CN(C)C=C1N=C2CN=C(c3ccccc3)c3cc(Br)ccc3N2C1=O [PS-1-34B]  condition met
2  C#Cc1ccc2c(c1)C(c1ccccc1F)=NCC(=O)N2 [JYI-60 (C17H11N2OF)]  condition met

Attention now shifts to the item below.
Please tell me: is the molecule CCOC(=O)c1ncc2[nH]c3ccc(OCc4cccc5ccccc45)cc3c2c1COC at or over 7 in terms of pKi?
condition not met

----------
Tgt: α2β3γ2 GABAA/BzR (Homo sapiens, UniProt P18507+P47869)
Protocol Notes: Competition binding to HEK cell membranes, α2β3γ2
Set-up: expressed in transfected cells
Cond: read-out: Ki α2
pKi: −log10 of the molar value.
// label = criterion met if pKi is not less than 7, otherwise criterion not met

Previously resolved entries follow.
> print(dat)
                                   compound       answer.label
1  CC(C)OC(=O)c1ncn2c1[C@@H]1CCCN1C(=O)c1cc(Br)ccc1-2 [MMB-II-90]      criterion met
2  O=C(OCC(F)(F)F)c1ncn2c1C1CCCN1C(=O)c1cc(Br)ccc1-2 (stereo not drawn) [JYI-10]  criterion not met
3  CCC(C)OC(=O)c1ncn2c1C1CCCN1C(=O)c1cc(F)ccc1-2 (stereo not drawn) [CM-B44]      criterion met
4  CC(C)OC(=O)c1ncn2c1[C@@H]1CCCN1C(=O)c1ccccc1-2 [MMB-III-016]      criterion met
5  CC(C)(C)OC(=O)c1ncn2c1[C@@H]1CCCN1C(=O)c1cc(-c3cccs3)ccc1-2 [JYI-19]  criterion not met
6  C#Cc1ccc2c(c1)C(c1cccs1)=NCc1c(C(=O)OCC)ncn1-2 [JC221]      criterion met
7  CN1Cc2c(C(=O)OC3CC3)ncn2-c2ccc(Cl)cc2C1=O [CD-214]      criterion met

Attention now shifts to the item below.
Please tell me: is the compound CC(C)(C)OC(=O)c1cc2c(cn1)[nH]c1ccc(I)cc12 [CM-A100] at or over 7 in terms of pKi?
criterion met

----------
Tgt: α6β3γ2 GABAA/BzR (Homo sapiens, UniProt P18507+Q16445)
Protocol Notes: Competition binding to HEK cell membranes, α6β3γ2
Parameters: expressed in transfected cells
Cond: Figure 5; read-out: Ki α6
pKi: −log10 of the molar value.
Reported pKi by item:

> print(dat)
                                   molecule  result
1  CCc1ccc2c(c1)C(=O)N(C)Cc1c(C(=O)OCCCOC(=O)c3ncn4c3CN(C)C(=O)c3cc(CC)ccc3-4)ncn1-2 [XLi-356 (10)]    5.30

Under α6β3γ2 GABAA/BzR (Homo sapiens, UniProt P18507+Q16445): pKi value of CCOC(=O)c1ncoc1-c1ncn2c1C1CCN1C(=O)c1cc(C#C[Si](C)(C)C)ccc1-2 (stereo not shown) [RY-068 (11)] ?
< 6.00

Under α6β3γ2 GABAA/BzR (Homo sapiens, UniProt P18507+Q16445): pKi value of C#Cc1ccc2c(c1)C(=O)N1CCC1c1c(-c3ocnc3C(=O)OCC)ncn1-2 (stereo not shown) [RY-069 (13)] ?
< 6.00

Under α6β3γ2 GABAA/BzR (Homo sapiens, UniProt P18507+Q16445): pKi value of CCOC(=O)c1ncoc1-c1ncn2c1C1CCN1C(=O)c1cc(Br)ccc1-2 (stereo not shown) [RY-062 (12)] ?
< 5.70
